Entry source: patent US20040043959A1

Biological target: Human MTAP (Homo sapiens, UniProt Q13126)
Construct: six-histidine tag (His6) (N); made in house; host or cells: E. coli BL21 DE3
Sequence (Q13126 1-283): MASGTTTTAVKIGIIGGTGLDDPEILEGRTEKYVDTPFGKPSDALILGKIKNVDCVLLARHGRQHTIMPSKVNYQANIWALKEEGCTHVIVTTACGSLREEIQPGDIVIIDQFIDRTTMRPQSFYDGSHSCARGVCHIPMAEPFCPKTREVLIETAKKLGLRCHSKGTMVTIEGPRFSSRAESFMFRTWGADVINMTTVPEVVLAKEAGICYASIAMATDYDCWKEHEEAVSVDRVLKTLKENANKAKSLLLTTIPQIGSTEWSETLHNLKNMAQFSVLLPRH
Assay: MTAP substrate assay, coupled spectrophotometric (adenine, xanthine oxidase)
Format: biochemical
Settings: 10 min; compound 50 uM, 2 nM MTAP, relative to MTA at 50 uM; read-out: MT-A—50: initial velocity as a percentage of the initial velocity with MTA as substrate
# maps each entry to its activity at 50 µM

| compound-string | test-target | activity at 50 µM |
| --- | --- | --- |
| Nc1ncnc2c1ncn2[C@@H]1O[C@H](CSc2ccccc2Cl)[C@@H](O)[C@H]1O | Human MTAP (Homo sapiens, UniProt Q13126) | 6% |
| Nc1ncnc2c1ncn2[C@@H]1O[C@H](CSc2cccc(Br)c2)[C@@H](O)[C@H]1O | Human MTAP (Homo sapiens, UniProt Q13126) | 19% |
| Nc1ncnc2c1ncn2[C@@H]1O[C@H](CSc2ccc(Br)cc2)[C@@H](O)[C@H]1O | Human MTAP (Homo sapiens, UniProt Q13126) | 17% |
| CCCCCCCCCCSC[C@H]1O[C@@H](n2cnc3c(N)ncnc32)[C@H](O)[C@@H]1O | Human MTAP (Homo sapiens, UniProt Q13126) | 41.5% |
| CCCCOC(=O)CCSC[C@H]1O[C@@H](n2cnc3c(N)ncnc32)[C@H](O)[C@@H]1O | Human MTAP (Homo sapiens, UniProt Q13126) | 30% |
| COc1ccc(CSC[C@H]2O[C@@H](n3cnc4c(N)ncnc43)[C@H](O)[C@@H]2O)cc1 | Human MTAP (Homo sapiens, UniProt Q13126) | 60% |
| Cc1cnc(SC[C@H]2O[C@@H](n3cnc4c(N)ncnc43)[C@H](O)[C@@H]2O)nc1O | Human MTAP (Homo sapiens, UniProt Q13126) | 39% |
| Nc1ncnc2c1ncn2[C@@H]1O[C@H](CSCCCCO)[C@@H](O)[C@H]1O | Human MTAP (Homo sapiens, UniProt Q13126) | 45% |

* * *

Molecular target: Human MTAP (Homo sapiens)
Construct: six-histidine tag (His6) (N); made in house; host or cells: E. coli BL21 DE3
Experiment: MTAP substrate assay, coupled spectrophotometric (adenine, xanthine oxidase)
Format: biochemical
Details: 10 min; compound 50 uM, 2 nM MTAP, relative to MTA at 50 uM; read-out: MT-A—50: initial velocity as a percentage of the initial velocity with MTA as substrate

| compound | activity at 50 µM [%] |
| --- | --- |
| Nc1ncnc2c1ncn2[C@@H]1O[C@H](CSc2nc3ccccc3c(=O)[nH]2)[C@@H](O)[C@H]1O [2(G)(50)] | 37 |
| Cc1cc(=O)oc2cc(SC[C@H]3O[C@@H](n4cnc5c(N)ncnc54)[C@H](O)[C@@H]3O)ccc12 [2(G)(40)] | 10 |
| Nc1ncnc2c1ncn2[C@@H]1O[C@H](CSc2ccc(/C=C/C(=O)O)cc2)[C@@H](O)[C@H]1O [2(G)(108)] | 19 |
| Nc1ncnc2c1ncn2[C@@H]1O[C@H](CSc2nc3ccccc3o2)[C@@H](O)[C@H]1O [2(G)(122)] | 37 |

* * *

Molecular target: Human MTAP (Homo sapiens, UniProt Q13126)
Construct: six-histidine tag (His6) (N); made in house; host or cells: E. coli BL21 DE3
Experiment: MTAP substrate assay, coupled spectrophotometric (adenine, xanthine oxidase)
Assay type: biochemical
Conditions: 10 min; compound 50 uM, 2 nM MTAP, relative to MTA at 50 uM; read-out: MT-A—50: initial velocity as a percentage of the initial velocity with MTA as substrate
Answer Not fulfilled if activity at 50 µM is under 20%, and Fulfilled if it is 20% or more.

| compound-string | label-class |
| --- | --- |
| Cn1ccnc1SC[C@H]1O[C@@H](n2cnc3c(N)ncnc32)[C@H](O)[C@@H]1O | Not fulfilled |
| Nc1nc(SC[C@H]2O[C@@H](n3cnc4c(N)ncnc43)[C@H](O)[C@@H]2O)c2[nH]cnc2n1 | Fulfilled |
| Nc1ncnc(SC[C@H]2O[C@@H](n3cnc4c(N)ncnc43)[C@H](O)[C@@H]2O)n1 | Fulfilled |
| Nc1ncnc2c1ncn2[C@@H]1O[C@H](CSc2cccc(Cl)c2Cl)[C@@H](O)[C@H]1O | Not fulfilled |
| CCc1ccc(SC[C@H]2O[C@@H](n3cnc4c(N)ncnc43)[C@H](O)[C@@H]2O)cc1 | Not fulfilled |
| COc1ccc(SC[C@H]2O[C@@H](n3cnc4c(N)ncnc43)[C@H](O)[C@@H]2O)cc1OC | Fulfilled |
| CC(C)c1ccc(SC[C@H]2O[C@@H](n3cnc4c(N)ncnc43)[C@H](O)[C@@H]2O)cc1 | Not fulfilled |
| Nc1ncnc2c1ncn2[C@@H]1O[C@H](CSc2nc3cc(Cl)ccc3o2)[C@@H](O)[C@H]1O | Fulfilled |
| Nc1ncnc2c1ncn2[C@@H]1O[C@H](CSc2ccccc2CO)[C@@H](O)[C@H]1O | Not fulfilled |
| Cc1ccc2[nH]c(SC[C@H]3O[C@@H](n4cnc5c(N)ncnc54)[C@H](O)[C@@H]3O)nc2c1 | Not fulfilled |
| Nc1ncnc2c1ncn2[C@@H]1O[C@H](CSc2nc[nH]n2)[C@@H](O)[C@H]1O | Fulfilled |
| COC(=O)c1cccc(SC[C@H]2O[C@@H](n3cnc4c(N)ncnc43)[C@H](O)[C@@H]2O)c1 | Not fulfilled |
| CCOC(=O)CSC[C@H]1O[C@@H](n2cnc3c(N)ncnc32)[C@H](O)[C@@H]1O | Fulfilled |
| CCc1cnc(SC[C@H]2O[C@@H](n3cnc4c(N)ncnc43)[C@H](O)[C@@H]2O)[nH]c1=O | Fulfilled |
| Nc1ncnc2c1ncn2[C@@H]1O[C@H](CSc2nccn2Cc2ccccc2)[C@@H](O)[C@H]1O | Not fulfilled |
| Nc1ncnc2c1ncn2[C@@H]1O[C@H](CSc2nc3ccc(Cl)cc3o2)[C@@H](O)[C@H]1O | Fulfilled |

* * *

Target: Human MTAP (Homo sapiens, UniProt Q13126)
Construct: six-histidine tag (His6) (N); made in house; host or cells: E. coli BL21 DE3
Test: MTAP substrate assay, coupled spectrophotometric (adenine, xanthine oxidase)
Assay type: biochemical
Conditions: compound 10 uM, 2 nM MTAP, relative to MTA at 10 uM
# maps each entry to its MT-A—10: initial velocity as a percentage of the initial velocity with MTA as substrate
measure: MT-A—10: initial velocity as a percentage of the initial velocity with MTA as substrate (%)

| compound | reported-value |
| --- | --- |
| Nc1ncnc2c1ncn2[C@@H]1O[C@H](CSc2ccc(C(F)(F)F)cc2[N+](=O)[O-])[C@@H](O)[C@H]1O [2(G)(103)] | 3 |
| Nc1nc(SC[C@H]2O[C@@H](n3cnc4c(N)ncnc43)[C@H](O)[C@@H]2O)c2[nH]cnc2n1 [2(G)(3)] | 46 |
| Cc1nnc(SC[C@H]2O[C@@H](n3cnc4c(N)ncnc43)[C@H](O)[C@@H]2O)n1C [2(G)(67)] | 45 |
| Nc1ccc(SC[C@H]2O[C@@H](n3cnc4c(N)ncnc43)[C@H](O)[C@@H]2O)cc1 [2(G)(10)] | 20 |

* * *

Target: Human MTAP (Homo sapiens, UniProt Q13126)
Construct: six-histidine tag (His6) (N); made in house; host or cells: E. coli BL21 DE3
Sequence (Q13126 1-283): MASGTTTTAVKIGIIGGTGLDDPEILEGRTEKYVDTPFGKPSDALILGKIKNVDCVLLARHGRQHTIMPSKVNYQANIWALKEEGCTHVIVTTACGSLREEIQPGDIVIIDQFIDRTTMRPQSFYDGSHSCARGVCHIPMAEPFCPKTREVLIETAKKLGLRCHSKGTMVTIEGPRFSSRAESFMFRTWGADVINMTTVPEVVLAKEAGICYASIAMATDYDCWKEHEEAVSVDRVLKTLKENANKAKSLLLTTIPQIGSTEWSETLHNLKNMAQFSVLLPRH
Assay: MTAP substrate assay, coupled spectrophotometric (adenine, xanthine oxidase)
Assay type: biochemical
Settings: compound 10 uM, 2 nM MTAP, relative to MTA at 10 uM
Experimental: An enzymatic assay to determine the activity of MTAP against a given substrate was performed. Human MTAP containing an N-terminal six-histidine tag was expressed in E. coli BL21 DE3 cells. The protein was purified to homogeneity by Ni2+ affinity chromatography. Enzymatic activity was measured using a coupled spectrophotometric assay designed to monitor the reaction product adenine (Savarese, T. M., Crabtree, G. W., and Parks, R. E. Jr., (1980) Biochem. Pharmacol. 30, 189-199). […]
measure: MT-A—10: initial velocity as a percentage of the initial velocity with MTA as substrate (%)

| molecule | readout-unit | reported-value |
| --- | --- | --- |
| Nc1ncnc2c1ncn2[C@@H]1O[C@H](CSc2ccccc2CO)[C@@H](O)[C@H]1O | % | 32.5 |
| Nc1ncnc2c1ncn2[C@@H]1O[C@H](CSc2nc3cc(Cl)ccc3o2)[C@@H](O)[C@H]1O | % | 12 |
| Nc1cccc(SC[C@H]2O[C@@H](n3cnc4c(N)ncnc43)[C@H](O)[C@@H]2O)c1 | % | 33 |
| CCC(C)SC[C@H]1O[C@@H](n2cnc3c(N)ncnc32)[C@H](O)[C@@H]1O (stereo partly shown) | % | 42 |
| CCCCNCCSC[C@H]1O[C@@H](n2cnc3c(N)ncnc32)[C@H](O)[C@@H]1O | % | 18 |
| CCCCCCCCCCSC[C@H]1O[C@@H](n2cnc3c(N)ncnc32)[C@H](O)[C@@H]1O | % | 46 |
| Cc1cc(=O)oc2cc(SC[C@H]3O[C@@H](n4cnc5c(N)ncnc54)[C@H](O)[C@@H]3O)ccc12 | % | 6 |
| CCOC(=O)c1cnc(SC[C@H]2O[C@@H](n3cnc4c(N)ncnc43)[C@H](O)[C@@H]2O)nc1N | % | 35 |
| N#Cc1cccnc1SC[C@H]1O[C@@H](n2cnc3c(N)ncnc32)[C@H](O)[C@@H]1O | % | 3 |
| Nc1ncnc2c1ncn2[C@@H]1O[C@H](CSc2nc(O)c3cn[nH]c3n2)[C@@H](O)[C@H]1O | % | 52 |
| Nc1ncnc2c1ncn2[C@@H]1O[C@H](CSc2ccc3ccccc3n2)[C@@H](O)[C@H]1O | % | 38 |
| CC(C)n1c(O)nnc1SC[C@H]1O[C@@H](n2cnc3c(N)ncnc32)[C@H](O)[C@@H]1O | % | 5 |
| CC(C)c1ccc(SC[C@H]2O[C@@H](n3cnc4c(N)ncnc43)[C@H](O)[C@@H]2O)cc1 | % | 15 |
| COc1ccc(CSC[C@H]2O[C@@H](n3cnc4c(N)ncnc43)[C@H](O)[C@@H]2O)c(OC)c1 | % | 5 |
| Nc1ncnc2c1ncn2[C@@H]1O[C@H](CSc2ccc([N+](=O)[O-])cn2)[C@@H](O)[C@H]1O | % | 17 |
| Nc1ncnc2c1ncn2[C@@H]1O[C@H](CSC[C@@H]2NC(=O)NC2=O)[C@@H](O)[C@H]1O | % | 23 |
| Cc1csc(SC[C@H]2O[C@@H](n3cnc4c(N)ncnc43)[C@H](O)[C@@H]2O)n1 | % | 38 |
| CC(=O)NCCSC[C@H]1O[C@@H](n2cnc3c(N)ncnc32)[C@H](O)[C@@H]1O | % | 29 |
| CCc1cnc(SC[C@H]2O[C@@H](n3cnc4c(N)ncnc43)[C@H](O)[C@@H]2O)[nH]c1=O | % | 38 |
| Nc1ncnc2c1ncn2[C@@H]1O[C@H](CSCc2ccc(Cl)cc2Cl)[C@@H](O)[C@H]1O | % | 14 |
| Nc1ncnc2c1ncn2[C@@H]1O[C@H](CSCCc2ccncc2)[C@@H](O)[C@H]1O | % | 38 |
| Nc1ncnc2c1ncn2[C@@H]1O[C@H](CSc2ccccc2C2=NCCCN2)[C@@H](O)[C@H]1O | % | 8 |
| Nc1ncnc2c1ncn2[C@@H]1O[C@H](CSCc2ccc(Cl)cc2)[C@@H](O)[C@H]1O | % | 47 |
| Nc1ncnc2c1ncn2[C@@H]1O[C@H](CSc2ccc(O)cc2)[C@@H](O)[C@H]1O | % | 16 |
| COC(=O)c1ccccc1SC[C@H]1O[C@@H](n2cnc3c(N)ncnc32)[C@H](O)[C@@H]1O | % | 4 |
| Nc1ncnc2c1ncn2[C@@H]1O[C@H](CSCCc2cnccn2)[C@@H](O)[C@H]1O | % | 15 |
| Nc1ncnc2c1ncn2[C@@H]1O[C@H](CSc2nc3ccccc3c(=O)[nH]2)[C@@H](O)[C@H]1O | % | 9 |
| Nc1ncnc2c1ncn2[C@@H]1O[C@H](CSCc2ccc(Cl)c(Cl)c2)[C@@H](O)[C@H]1O | % | 3.5 |
| Nc1ncnc2c1ncn2[C@@H]1O[C@H](CSCc2cccc(C(F)(F)F)c2)[C@@H](O)[C@H]1O | % | 23 |
| Nc1ncnc2c1ncn2[C@@H]1O[C@H](CSc2ccccc2OC(F)(F)F)[C@@H](O)[C@H]1O | % | 3 |
| CCOC(=O)c1c[nH]c(SC[C@H]2O[C@@H](n3cnc4c(N)ncnc43)[C@H](O)[C@@H]2O)n1 | % | 0 |
